Each recorded value in this set is attributed to patent US8722674B2.

# Test system: C2C12 cells
# PROTOCOL DESCRIPTION: Measurement of glucose absorption (3H-deoxy-glucose)
# Assay type: cell-based
# MEASUREMENT CONTEXT: Mus musculus; 200 uM, differentiated C2C12 muscle cells, with 1 μM insulin 24 h; higher is better; read-out: glucose absorption, % control
MEASUREMENT TYPE: activity at 200 µM (%)
Give bare numbers, in %.

{"SMILES INPUT": "CN(C)c1nc(N)nc(NCCCN2CCCC2=O)n1", "MEASUREMENT TYPE": "activity at 200 µM", "RECORDED VALUE": 120}
{"SMILES INPUT": "COc1ccc(CNc2nc(N)nc(N(C)C)n2)cc1O", "MEASUREMENT TYPE": "activity at 200 µM", "RECORDED VALUE": 126}
{"SMILES INPUT": "Nc1nc(N)nc(NCCc2ccccc2)n1", "MEASUREMENT TYPE": "activity at 200 µM", "RECORDED VALUE": 115}

query: Please look up its activity at 200 µM: CN(C)c1nc(N)nc(N(C)C)n1
result: 102
